Measured values drawn from patent US9701691B2 for this set.

molecular target: Recombinant human full length SYK protein (Homo sapiens (Human)); test: SYK kinase assay (33P ATP incorporation into biotinylated peptide); assay type: biochemical; settings: ATP 20 μM

Compound String | IC50
Cc1cc(NC(=O)c2csc3cnc(N[C@@H]4CCCC[C@@H]4N)nc23)cc2cccnc12 | < 0.001 µM
